- TARGET_OR_TEST_SYSTEM: T1, rhIL-21-His (AB235875-1001, Abcam) (human, UniProt Q9HBE4 30-162)
- T1 construct: bought; not shown: His tag, length and position not described
- T1 sequence (Q9HBE4 30-162 limits assumed): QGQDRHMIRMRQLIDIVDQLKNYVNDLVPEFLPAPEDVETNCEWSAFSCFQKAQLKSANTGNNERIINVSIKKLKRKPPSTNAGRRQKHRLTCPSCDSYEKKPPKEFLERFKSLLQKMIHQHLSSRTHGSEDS
- MEASUREMENT_NOTES: SPR, Fab on captured rhIL-21-His
Catalogue of binders with associated kon
Just the number please, in M⁻¹ s⁻¹, no unit attached.

[[record]]
binder = "ZAP122 Fab (Fab, V domains shown, Fab; also called ZAP122 wt) VH: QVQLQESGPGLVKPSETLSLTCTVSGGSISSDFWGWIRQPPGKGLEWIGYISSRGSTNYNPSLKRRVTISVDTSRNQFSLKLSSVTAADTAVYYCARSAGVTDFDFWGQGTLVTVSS VL: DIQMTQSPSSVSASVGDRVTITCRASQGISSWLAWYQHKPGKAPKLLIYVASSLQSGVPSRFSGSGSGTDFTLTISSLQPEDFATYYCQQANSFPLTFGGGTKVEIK"
quantitative_readout = 221000

[[record]]
binder = "PAI969 Fab (Fab, V domains shown, Fab) VH: QVQLQESGPGLVKPSETLSLTCTVSGGSISSDYWGWIRQPPGKGLEWIGYISSSGSTNYNPSLKSRVTISVDTSRNQFSLKLSSVTAADTAVYYCARSAGVADFDAWGQGTLVTVSS VL: DIQLTQSPSSVSASVGDRVTITCRASQGISSWLAWYQHKPGKAPKLLIYVASSLQSGVPSRFSGSGSGTDFTLTISSLQPEDFATYYCQQASSFPLTFGGGTKVEIK"
quantitative_readout = 140000

[[record]]
binder = "UER756 Fab (Fab, V domains shown, Fab) VH: QVQLQESGPGLVKPSETLSLTCTVSGGSISSDYWGWIRQPPGKGLEWIGYISSSGSTNYNPSLKSRVTISVDTSRNQFSLKLSSVTAADTAVYYCARSAGVTDFDAWGQGTLVTVSS VL: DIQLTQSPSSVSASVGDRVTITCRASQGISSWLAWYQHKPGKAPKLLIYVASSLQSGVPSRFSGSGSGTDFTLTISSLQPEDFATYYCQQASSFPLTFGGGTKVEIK"
quantitative_readout = 140000

[[record]]
binder = "VPH777 Fab (Fab, V domains shown, Fab) VH: QVQLQESGPGLVKPSETLSLTCTVSGGSISSDYWGWIRQPPGKGLEWIGYISSSGSTNYNPSLKSRVTISVDTSRNQFSLKLSSVTAADTAVYYCARSAGVADFDFWGQGTLVTVSS VL: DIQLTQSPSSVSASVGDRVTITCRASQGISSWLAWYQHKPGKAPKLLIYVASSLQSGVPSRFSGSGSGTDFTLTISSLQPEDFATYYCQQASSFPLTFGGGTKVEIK"
quantitative_readout = 140000


The record that follows has no kon shown yet.
Exam item: Give the value of kon reported for the following: IFQ920 Fab (Fab, V domains shown, Fab) VH: QVQLQESGPGLVKPSETLSLTCTVSGGSISSDFWGWIRQPPGKGLEWIGYISSRGSTNYNPSLKRRVTISVDTSRNQFSLKLSSVTAADTAVYYCARSAGVADFDFWGQGTLVTVSS VL: DIQMTQSPSSVSASVGDRVTITCRASQGISSWLAWYQHKPGKAPKLLIYVASSLQSGVPSRFSGSGSGTDFTLTISSLQPEDFATYYCQQANSAPLTFGGGTKVEIK
Marked response: 281000
